Origin of values: paper PMC6886798

# Tested on: MOLM14 R3 (A-419259-resistant population)
# Assay details: CellTiter-Blue cell viability
# Type: cell-based, human
# Test conditions: read-out: A-419259 Sensitivity (IC50, nM) Initial, mean ± SE (n = 3)

Molecule: CN1CCN(C2CCC(n3cc(-c4ccc(Oc5ccccc5)cc4)c4c(N)ncnc43)CC2)CC1 (stereo not shown) [A-419259]
U: nM
IC50: 213

###

# Measured on: Hck T338M (Homo sapiens, UniProt P08631, T333M)
# Construct: Recombinant near-full-length kinases, consisting of the SH2, SH3 and kinase domains plus the negative regulatory tail
# Sequence (P08631 78-526 T333M limits assumed): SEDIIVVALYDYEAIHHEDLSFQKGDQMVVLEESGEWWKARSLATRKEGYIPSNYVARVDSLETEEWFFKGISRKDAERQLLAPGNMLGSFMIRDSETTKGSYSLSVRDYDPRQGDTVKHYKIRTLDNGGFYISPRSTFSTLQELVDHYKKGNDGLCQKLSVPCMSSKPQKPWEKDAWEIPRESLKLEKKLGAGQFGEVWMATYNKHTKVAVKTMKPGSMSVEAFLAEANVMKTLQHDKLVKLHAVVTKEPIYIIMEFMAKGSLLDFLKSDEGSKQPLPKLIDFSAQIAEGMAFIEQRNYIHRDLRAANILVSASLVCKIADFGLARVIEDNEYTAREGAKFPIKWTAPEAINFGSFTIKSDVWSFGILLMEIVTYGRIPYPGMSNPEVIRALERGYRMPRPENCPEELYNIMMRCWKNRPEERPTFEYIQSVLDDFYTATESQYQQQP
# Assay details: Z'-LYTE in vitro kinase assay
# Test conditions: read-out: A-419259 IC50; Fig 5B; Hck T338M; ATP at Km; mean ± SE, three independent determinations
pIC50: −log10 of the molar value.

Compound: CN1CCN(C2CCC(n3cc(-c4ccc(Oc5ccccc5)cc4)c4c(N)ncnc43)CC2)CC1 (stereo not shown)
pIC50: 7.02
